# target.system: T1, extracellular domain of rhesus monkey BCMA (rhesus monkey, UniProt F7FFA0 1-53)
# T1 construct: extracellular domain; also called RhBCMA
# T1 sequence (F7FFA0 entry or part of it): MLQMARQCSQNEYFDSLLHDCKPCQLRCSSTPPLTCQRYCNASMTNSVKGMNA
# procedure.text: Octet BLI; Fab 200 nM
quantity.measured: koff (s⁻¹)

| binder | endpoint.value |
| --- | --- |
| AB200_Fab + D99T (Fab, name in Kabat numbering, V domains shown) VH: QVQLVQSGAEVKKPGSSVKVSCKASGGTFSNYWMHWVRQAPGQGLEWMGATYRGHSDTYYNQKFKGRVTITADKSTSTAYMELSSLRSEDTAVYYCARGAIYTGYDVLDNWGQGTLVTVSS VL: DIQMTQSPSSLSASVGDRVTITCSASQDISNYLNWYQQKPGKAPKLLIYYTSNLHSGVPSRFSGSGSGTDFTLTISSLQPEDFATYYCQQYRKLPWTFGQGTKLEIKR | 0.00099 |
| AB200_Fab + D99Q (Fab, name in Kabat numbering, V domains shown) VH: QVQLVQSGAEVKKPGSSVKVSCKASGGTFSNYWMHWVRQAPGQGLEWMGATYRGHSDTYYNQKFKGRVTITADKSTSTAYMELSSLRSEDTAVYYCARGAIYQGYDVLDNWGQGTLVTVSS VL: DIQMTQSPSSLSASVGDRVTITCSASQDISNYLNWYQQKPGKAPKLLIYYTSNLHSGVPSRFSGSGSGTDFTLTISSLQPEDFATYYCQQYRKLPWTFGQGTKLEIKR | 0.0014 |
| AB200_Fab + D99H (Fab, V domains shown, also called AB200_D99H; D99H variant) VH: QVQLVQSGAEVKKPGSSVKVSCKASGGTFSNYWMHWVRQAPGQGLEWMGATYRGHSDTYYNQKFKGRVTITADKSTSTAYMELSSLRSEDTAVYYCARGAIYHGYDVLDNWGQGTLVTVSS VL: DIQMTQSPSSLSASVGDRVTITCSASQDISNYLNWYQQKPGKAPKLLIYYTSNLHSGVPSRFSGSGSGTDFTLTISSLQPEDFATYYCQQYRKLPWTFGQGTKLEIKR | 0.00105 |
